Reference source for all entries: ChEMBL document CHEMBL1201862

# Tested System: Methionyl-tRNA synthetase, putative (Trypanosoma brucei brucei)
# Assay type: functional, Trypanosoma brucei brucei strain 927/4 GUTat10.1
Active and inactive are the calls of the source.
Reported Metric: IC50

Q. Need IC50 of O=C(Cc1ccc(Cl)c(Cl)c1)Nc1cccc(S(=O)(=O)N2CCOCC2)c1 , thanks.
A. 4.48 µM (active)

Q. IC50 for O=C(COc1cccc(-n2cnnn2)c1)Nc1ccccc1 ?
A. 38.2 µM (inactive)

Q. // lookup IC50 for OC(c1cc(Cl)cc(Cl)c1)c1nc(-c2cccc(F)c2)c[nH]1 (centres undefined)
A. 7.94 µM (active)

Q. Consider the molecule Cn1nc(C(F)(F)F)c(-c2cccc(C(F)(F)F)c2)c1NC(=O)Nc1ccc(F)cc1 and give its measured IC50.
A. 10.4 µM (inactive)

* * *

# Tested System: Rac GTPase-activating protein 1 (Homo sapiens, UniProt Q9H0H5)
# Sequence (Q9H0H5 whole entry): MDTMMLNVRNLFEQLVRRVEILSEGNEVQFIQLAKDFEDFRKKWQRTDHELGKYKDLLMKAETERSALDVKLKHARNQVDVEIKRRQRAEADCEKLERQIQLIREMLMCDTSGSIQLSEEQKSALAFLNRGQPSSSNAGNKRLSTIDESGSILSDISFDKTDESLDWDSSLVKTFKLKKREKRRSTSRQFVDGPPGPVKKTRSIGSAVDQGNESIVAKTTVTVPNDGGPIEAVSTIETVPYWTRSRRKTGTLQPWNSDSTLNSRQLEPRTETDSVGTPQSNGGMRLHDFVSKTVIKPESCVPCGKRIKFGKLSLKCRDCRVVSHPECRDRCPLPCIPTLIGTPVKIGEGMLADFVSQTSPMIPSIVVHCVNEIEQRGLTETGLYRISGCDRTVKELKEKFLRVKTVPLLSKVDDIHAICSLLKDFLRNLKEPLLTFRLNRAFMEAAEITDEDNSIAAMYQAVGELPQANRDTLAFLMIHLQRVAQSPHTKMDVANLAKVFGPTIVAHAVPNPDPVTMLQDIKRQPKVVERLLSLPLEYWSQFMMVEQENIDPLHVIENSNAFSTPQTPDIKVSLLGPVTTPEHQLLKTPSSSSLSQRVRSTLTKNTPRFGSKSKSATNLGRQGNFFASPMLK
# Protocol: MgcRacGAP GTPase-activating activity inhibitors, confirmation, biochemical, ADP Hunter fluorescence, primary and confirmatory (AID 624330)
# Type: functional
Active and inactive are the calls of the source.
Reported Metric: IC50

Q. Give the measured IC50 of O=C(CCN1CCN(C(c2ccccc2)c2ccccc2)CC1)N/N=C/c1ccc(O)cc1 .
A. 88.2 µM (active)

Q. Please report the recorded IC50 for CCN(CCCl)c1cc(CN(C)C)cc(NC(=O)c2ccc(C(=O)Nc3cc(CN(C)C)cc(N(CC)CCCl)c3)cc2)c1 .
A. 126 µM (active)

Q. For CC(C)=C(NC(=O)c1ccccc1)C(=O)N/N=C/c1ccc(O)cc1 , what is its reported IC50?
A. 102 µM (active)

Q. // lookup IC50 for C/N=c1\scc(-c2ccc(F)cc2)n1/N=C/c1ccc(O)c(O)c1
A. 29.6 µM (active)

Q. # IC50 lookup, item COc1ccc2c(c1)Sc1ccccc1N2
A. 28.8 µM (active)

Q. Name the recorded IC50 for COc1cccc(C(=O)Nc2cc3c(cc2N2CCCC2)n(C)c(=O)n3C)c1 .
A. 156 µM (active)

Q. Look at this compound and give its reported IC50. CCOCCCNCC(=O)NCC1CCCCC1
A. 141 µM (active)

Q. What does the data say about its IC50? Entry: CCN(CC)CC(=O)NN(Cc1ccccc1)c1ccccc1
A. 108 µM (active)

Q. Given the compound COc1ccc(/C=N/n2c(S)nnc2-c2[nH]nc3c2CCC3)cc1OC , what is its reported IC50?
A. 79.9 µM (active)

Q. Please look up its IC50: CC1CCCCN1Cc1cccnc1 (centres undefined)
A. 109 µM (active)

Q. Can you share its IC50? I mean this compound: CC(=O)N1CCN(c2ccc(NCc3ccco3)cc2)CC1
A. 14.6 µM (active)

Q. Which IC50 value is on record for CCOc1cc(/C=C2\C(=N)N3N=C(S(=O)(=O)CC)SC3=NC2=O)ccc1O ?
A. 79.6 µM (active)

Q. Reported IC50 for COc1cc(/C=C2\SC(Nc3ccc(Cl)c(C(=O)O)c3)=NC2=O)c(Br)c(Br)c1O : what is it?
A. 13.9 µM (active)

Q. Any idea what IC50 was measured for Nc1ccc2ccc(O)cc2c1 ?
A. 36.7 µM (active)

* * *

# Tested System: Corticotropin-releasing factor receptor 2/Corticotropin-releasing factor-binding protein (Homo sapiens, UniProt P24387+Q13324)
# Sequence (Q13324 whole entry): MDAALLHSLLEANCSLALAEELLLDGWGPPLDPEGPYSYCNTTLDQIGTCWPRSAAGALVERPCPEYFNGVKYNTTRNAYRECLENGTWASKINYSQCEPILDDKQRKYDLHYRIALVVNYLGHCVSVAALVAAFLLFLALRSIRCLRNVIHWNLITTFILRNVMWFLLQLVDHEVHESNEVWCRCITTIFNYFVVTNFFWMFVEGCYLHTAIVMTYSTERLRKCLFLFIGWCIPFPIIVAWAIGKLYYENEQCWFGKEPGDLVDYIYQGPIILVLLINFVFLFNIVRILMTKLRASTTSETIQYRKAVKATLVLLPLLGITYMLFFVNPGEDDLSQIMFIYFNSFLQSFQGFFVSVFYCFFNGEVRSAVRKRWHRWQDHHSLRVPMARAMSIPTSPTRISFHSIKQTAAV
# Sequence (P24387 whole entry): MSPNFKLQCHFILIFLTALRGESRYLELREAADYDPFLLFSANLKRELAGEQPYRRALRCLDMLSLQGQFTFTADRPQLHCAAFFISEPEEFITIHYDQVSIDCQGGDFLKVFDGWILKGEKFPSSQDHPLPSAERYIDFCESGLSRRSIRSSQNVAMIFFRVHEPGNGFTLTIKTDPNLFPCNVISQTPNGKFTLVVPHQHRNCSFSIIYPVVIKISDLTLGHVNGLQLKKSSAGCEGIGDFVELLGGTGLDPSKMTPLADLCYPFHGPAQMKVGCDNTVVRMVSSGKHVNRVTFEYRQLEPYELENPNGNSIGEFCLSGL
# Protocol: activators of CRF receptor 2 with binding protein – uHTS hits, confirmation (AID 602473)
# Format: functional
# Measurement Parameters: read-out: EC50_Mean
Calls of active or inactive are those of the source.
Could you please pick one outcome from this set? active, inactive

Q. Per the assay record, what outcome was assigned to CC(SC1=NCCS1)C(=O)Nc1nnc(-c2ccc(Br)cc2)s1 (stereo not drawn) ?
A. inactive

Q. State the result this test recorded for Cn1nnc2cc(C(=O)NCCC3=CCCCC3)ccc21 .
A. inactive

Q. Dear colleague, could you share the recorded outcome for NC(=O)c1c(NC(=O)c2ccccc2)sc2c1CCN(Cc1ccccc1)C2 when you have a moment?
A. active

Q. Hi, sorry to bother you, what did the test record for COc1cccc(CN2CCN(Cc3cc4ccccc4[nH]3)CC2CCO)c1 (stereo not drawn) ?
A. active

Q. GET /call?item= CCOC(=O)C1C(C)=CC(=O)CC1c1ccco1 (stereo not drawn) returns the recorded outcome of this test.
A. inactive

Q. Returns: the outcome recorded for COCCN=C(S)N1CCc2cc(OC)c(OC)cc2C1COc1cc(C)cc(C)c1 (stereo not drawn) in this assay.
A. inactive

Q. What was the test verdict on CN(C)c1ccc(C=C2SC(=S)N(Cc3ccco3)C2=O)cc1 ?
A. active

Q. Any idea what this test logged for C/C(=N\Nc1cc(C)nc(-c2ccccc2)n1)c1cccc([N+](=O)[O-])c1 ?
A. inactive

Q. What outcome does the record of this test show for COc1ccc(C2=NN=C(c3ccco3)Nc3ccc(F)cc32)cc1 ?
A. inactive

Q. # fetch the recorded call for COc1ccc(NC(=O)CCCC2CCCCC2)cc1S(=O)(=O)N1CCCCC1 here
A. inactive

Q. What did this assay record as the result for COC(CNc1ncnc2c1cnn2C)OC ?
A. inactive

Q. Hi, sorry to bother you, what did the test record for CN(CC1CCOCC1)C(=O)CC1C(=O)NCCN1Cc1ccc(Cl)c(F)c1 (stereo not drawn) ?
A. inactive

Q. What call does the record list for CCN(c1ccccc1)S(=O)(=O)c1ccc(NC(=O)c2ccco2)cc1 ?
A. inactive

* * *

# Protocol: P. falciparum ATP4 D1247Y mutant growth inhibitors, dose response, NITD609-resistant line, SYBR Green, dry powder (AID 1159571);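 note: parasites synchronized at ring stage by sorbitol before testing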
# Format: functional, cell-based
Calls of active or inactive are those of the source.
Reported Metric: AC50

Q. Give the measured AC50 of N#Cc1ccc(-c2ccc([C@@H]3[C@@H]4CN(C(=O)C5CCC5)C[C@H]3N4)cc2)cc1 .
A. 1.35 µM (active)

Q. Would you kindly share the measured AC50 for O=C(C1CCCCC1)N1[C@H](CO)[C@@H](c2ccccc2)C12CN(Cc1cccc(Cl)c1)C2 ?
A. 0.606 µM (active)

Q. Name the reported AC50 value associated with the compound C[C@H]1CN([C@@H](C)CO)C(=O)c2c(c3ccccc3n2C)-c2ccccc2CO[C@@H]1CN(C)S(=O)(=O)c1ccc(F)cc1
A. 1.15 µM (active)

Q. Fill blank: measured AC50 of the compound COc1ccc(S(=O)(=O)Nc2ccc3c(c2)CC(=O)N([C@H](C)CO)C[C@H](C)[C@H](CN(C)S(=O)(=O)c2ccc(C)cc2)O3)cc1 is ____.
A. 1.6 µM (active)

* * *

# Tested System: Methionyl-tRNA synthetase, putative (Trypanosoma brucei brucei, UniProt Q38C91)
# Sequence (Q38C91 whole entry): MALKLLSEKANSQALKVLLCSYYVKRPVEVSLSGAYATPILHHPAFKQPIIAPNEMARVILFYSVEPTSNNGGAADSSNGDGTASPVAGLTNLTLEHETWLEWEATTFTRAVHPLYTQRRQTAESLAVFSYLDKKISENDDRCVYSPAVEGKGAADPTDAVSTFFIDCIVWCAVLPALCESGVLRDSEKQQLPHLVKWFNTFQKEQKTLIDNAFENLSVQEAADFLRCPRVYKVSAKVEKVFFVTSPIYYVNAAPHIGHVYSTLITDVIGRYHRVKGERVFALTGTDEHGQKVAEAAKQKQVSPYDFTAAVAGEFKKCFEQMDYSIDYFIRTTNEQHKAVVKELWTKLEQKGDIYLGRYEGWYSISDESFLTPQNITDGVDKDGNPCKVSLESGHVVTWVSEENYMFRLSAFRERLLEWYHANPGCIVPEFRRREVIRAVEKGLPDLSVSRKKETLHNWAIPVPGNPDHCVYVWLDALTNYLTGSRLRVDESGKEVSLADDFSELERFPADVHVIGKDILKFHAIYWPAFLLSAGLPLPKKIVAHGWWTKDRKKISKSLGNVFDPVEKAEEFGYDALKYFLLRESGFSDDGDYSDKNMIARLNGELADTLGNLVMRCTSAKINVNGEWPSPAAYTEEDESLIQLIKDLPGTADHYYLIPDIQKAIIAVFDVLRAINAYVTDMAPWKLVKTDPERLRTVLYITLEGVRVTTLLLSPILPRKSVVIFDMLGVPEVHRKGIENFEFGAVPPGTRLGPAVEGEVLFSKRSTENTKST
# Format: functional, Trypanosoma brucei brucei strain 927/4 GUTat10.1
Calls of active or inactive are those of the source.
In this exercise, the only acceptable responses are 1 (yes) (active), 0 (no) (inactive)

Q. Outcome logged for O=C(COc1cccc(-n2cnnn2)c1)Nc1ccccc1 in this assay:
A. 0 (no)

Q. Please let me know the test result on file for O=C(Cc1ccc(Cl)c(Cl)c1)Nc1cccc(S(=O)(=O)N2CCOCC2)c1 .
A. 1 (yes)

Q. Outcome logged for OC(c1cc(Cl)cc(Cl)c1)c1nc(-c2cccc(F)c2)c[nH]1 (centres undefined) in this assay:
A. 0 (no)

Q. Recorded test outcome, item Cn1nc(C(F)(F)F)c(-c2cccc(C(F)(F)F)c2)c1NC(=O)Nc1ccc(F)cc1
A. 0 (no)
